Source: the supplement of paper PMC9170038

Recorded apparent KD of K4 kissing-loop reporter for the following sequences
Tested on: K4 kissing-loop RNA reporter;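 further: bound reporter read as fluorescence of individual clusters on recovered sequencing chips by microscopy, with normalized cluster intensities fitted with a binding model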
Assay: apparent KD of K4 kissing-loop reporter; higher = weaker reporter binding
Conditions: Eterna round: R107; input ligand: arginine 13.2 mM
Quick reminder: number only, in nM, skip the unit.

MONOMER_SEQUENCE	RESULT_UNIT	apparent KD of K4 kissing-loop reporter
CGGUAGUCUAUAGGGUCCAGUGAUGUUGGACAGGAUAUGCUACGCCGCAGAAGGGUCCAACUGGUUGUGAAGUUGGCUACUAGGC [Somaaxe]	nM	200

Input AGGCACGAGCAAGGAUAUCGAGUAGAGUGAUGUUCUGCCUGGGUUGGCUCGCAAGAGCCUUCUCAGCGAGAAGGUGCUCGUGCCU [#2 Same State - FMN A Attempt #18 (HarryS)] , output reported apparent KD of K4 kissing-loop reporter. 602

Input UUCGAUCAGUGAUGUUGAUCAUCAGUCGAAGGAGCGCUAGAGAUAGCAGGUAGGUCGCGACUGCAAGGUGUGAGAACACCUCGAA [Arg A SS t9a] , output reported apparent KD of K4 kissing-loop reporter. 358

Input ACCUACGAUCACAAAAGUGAUUGUAGGAUCUAGGAUAUGCUGAAGAGCAGAAGGAGAGUGAUGUUCUCAACUCACGAAAGUGAGA [whbob_Ex_FMNA__2th188] , output reported apparent KD of K4 kissing-loop reporter. 222

Input UGCAGUGAUGUUGCUAUUUUUCUUGAUUAACGAGGACCGGUACGGCCGCCACUCGAUUUCUCUCUAAUCCAGUAUGUUGUUUAGU [JR_ExcTryptoA_Sub001] , output reported apparent KD of K4 kissing-loop reporter. 144

Input UGGAUAUAGUGAUGUUAUAUAGAGAUGGAUACCAGUUUAGAGAAGAGCCCUUGGCAGCCGAAAGAAGUAUCAUUAGAGAAGAAUG [ExTheophyl.Al] , output reported apparent KD of K4 kissing-loop reporter. 164

---

Test system: MS2 coat protein
Experiment: apparent KD of MS2 coat protein; designed switch direction (-1 OFF switch, 1 ON switch): -1; higher = weaker reporter binding
Conditions: input ligand: FMN 200 uM
Label yes when apparent KD of MS2 coat protein is at or above 90 nM; anything below gets no.

Worked examples, 3 sequences total:
MONOMER_SEQUENCE	LABEL_CLASS
GAACAAGCGUGAGGCUCGUCUUAAAGAGCCUCAUGAAAAACAUGAGGAUCACCCAUGUAAAAUGAUCGAAAGAUCAA [Mat - Sensor v2 - var 2 - Mod - D131] (Eterna round: R96, puzzle: Sensor v2, turn-off variant 2)	no
CAAAAGAGAGGAUAUACAUGAGGAUCACCCAUGUAAAGUCCGCUGGUUGUUCAGAUAUGUAGAAGGCUCGUGUC [EX3 C.5] (Eterna round: R97, puzzle: Exclusion 3)	no
AUUUUGUCAGGAUAUUGUUAGUUUAGUUGUUUGUAUUAGUUCGAGAAGGGACAUGAGGAUCACCCAUGUGAUAA [Ex4 #72] (Eterna round: R97, puzzle: Exclusion 4)	no

# next sequence below
// inclusive: apparent KD of MS2 coat protein at least 90 nM? input: ACCUCUGCUGAGGAUAUCCUUGCGGAAGAAGGAGGAGAAGGCAGAACAUGAGGAUCACCCAUGUGGGAACAACG [Eternabot (Original) Solution 37] (Eterna round: R97, puzzle: Exclusion 6) yes
